- Target Under Test: T1, human IL-11 (Invigate, e.g., lot #C121021-19) (human, UniProt P20809 22-199)
- T1 construct: Bought protein; also called hIL-11; hIL11
- T1 sequence: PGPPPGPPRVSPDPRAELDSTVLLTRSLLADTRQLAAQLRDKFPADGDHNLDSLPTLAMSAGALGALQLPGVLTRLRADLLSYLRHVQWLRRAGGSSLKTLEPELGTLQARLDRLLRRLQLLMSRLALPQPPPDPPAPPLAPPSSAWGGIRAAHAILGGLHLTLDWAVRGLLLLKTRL
- Test: SPR, Biacore 8K; antibody captured on anti-human IgG Fc chip, IL-11 analyte 0-50 nM, 1:1 fit
Result Type: Kd (nM)
Note: unit nM is implicit; provide only the numeric part.

Worked cases, Kd given:
INSERT INTO assay_data (binder, result_type, recorded_result) VALUES
  ('TPP-31285 (antibody, human IgG4, V domains shown, consecutive numbering; also called VL-S90A) VH: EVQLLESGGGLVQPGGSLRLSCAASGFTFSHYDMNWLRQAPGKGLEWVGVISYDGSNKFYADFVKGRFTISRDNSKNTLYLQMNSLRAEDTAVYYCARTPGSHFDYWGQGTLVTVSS VL: QSVLTQPPSASGTPGQRVTISCSGSSSNIGNNAVNWYQQLPGTAPKLLIYYDDLLPSGVPDRFSGSKSGTSASLAISGLRSEDEADYYCAAWDDSLNGVVFGGGTKLTVL', 'Kd', 7.6),
  ('TPP-31309 (antibody, human IgG4, V domains shown, consecutive numbering; also called VH-G55S / VL-N97Q) VH: EVQLLESGGGLVQPGGSLRLSCAASGFTFSHYDMNWLRQAPGKGLEWVGVISYDSSNKFYADFVKGRFTISRDNSKNTLYLQMNSLRAEDTAVYYCARTPGSHFDYWGQGTLVTVSS VL: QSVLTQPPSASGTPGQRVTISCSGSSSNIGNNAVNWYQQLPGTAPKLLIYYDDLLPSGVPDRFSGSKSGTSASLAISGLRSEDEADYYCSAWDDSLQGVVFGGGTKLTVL', 'Kd', 41);

Problem: Given TPP-31281 (antibody, human IgG4, V domains shown, consecutive numbering; also called VL-D52N) VH: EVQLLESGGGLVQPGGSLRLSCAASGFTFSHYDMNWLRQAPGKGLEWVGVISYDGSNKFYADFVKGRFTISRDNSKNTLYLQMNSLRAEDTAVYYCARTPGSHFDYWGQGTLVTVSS VL: QSVLTQPPSASGTPGQRVTISCSGSSSNIGNNAVNWYQQLPGTAPKLLIYYNDLLPSGVPDRFSGSKSGTSASLAISGLRSEDEADYYCSAWDDSLNGVVFGGGTKLTVL , state its recorded Kd.
Solution: 170
